assay.metric: melting point

Item `CCS(=O)(=O)c1cc(-c2ncc(Cl)cn2)cnc1-c1ncc(-c2cnc(C(F)(F)F)nc2)n1C` has what recorded melting point?
224 to 226 °C

Which melting point value belongs to `CCS(=O)(=O)c1cc(-c2cccc(F)c2)cnc1-c1ncc(-c2cncc(C(F)(F)F)c2)n1C` ?
155 to 157 °C

State the recorded melting point for this entry: `CCS(=O)(=O)c1cc(-c2cccc(F)c2)cnc1-c1ncc(-c2cnc(C(F)(F)F)nc2)n1C`
193 to 195 °C

Fill blank: measured melting point of the molecule `CCS(=O)(=O)c1cc(-c2cccc(F)c2)cnc1-c1ncc(-c2ccc(C(F)(F)F)nc2)n1C` is ____.
170 to 172 °C

Requested field: melting point. Item: `CCS(=O)(=O)c1cc(-c2ncccn2)cnc1-c1ncc(-c2cnc(C(F)(F)F)nc2)n1C`
231 to 233 °C
